# System: PARP1 (Homo sapiens, UniProt P09874)
# Construct: purchased BPS 80501
# Sequence (P09874 whole entry): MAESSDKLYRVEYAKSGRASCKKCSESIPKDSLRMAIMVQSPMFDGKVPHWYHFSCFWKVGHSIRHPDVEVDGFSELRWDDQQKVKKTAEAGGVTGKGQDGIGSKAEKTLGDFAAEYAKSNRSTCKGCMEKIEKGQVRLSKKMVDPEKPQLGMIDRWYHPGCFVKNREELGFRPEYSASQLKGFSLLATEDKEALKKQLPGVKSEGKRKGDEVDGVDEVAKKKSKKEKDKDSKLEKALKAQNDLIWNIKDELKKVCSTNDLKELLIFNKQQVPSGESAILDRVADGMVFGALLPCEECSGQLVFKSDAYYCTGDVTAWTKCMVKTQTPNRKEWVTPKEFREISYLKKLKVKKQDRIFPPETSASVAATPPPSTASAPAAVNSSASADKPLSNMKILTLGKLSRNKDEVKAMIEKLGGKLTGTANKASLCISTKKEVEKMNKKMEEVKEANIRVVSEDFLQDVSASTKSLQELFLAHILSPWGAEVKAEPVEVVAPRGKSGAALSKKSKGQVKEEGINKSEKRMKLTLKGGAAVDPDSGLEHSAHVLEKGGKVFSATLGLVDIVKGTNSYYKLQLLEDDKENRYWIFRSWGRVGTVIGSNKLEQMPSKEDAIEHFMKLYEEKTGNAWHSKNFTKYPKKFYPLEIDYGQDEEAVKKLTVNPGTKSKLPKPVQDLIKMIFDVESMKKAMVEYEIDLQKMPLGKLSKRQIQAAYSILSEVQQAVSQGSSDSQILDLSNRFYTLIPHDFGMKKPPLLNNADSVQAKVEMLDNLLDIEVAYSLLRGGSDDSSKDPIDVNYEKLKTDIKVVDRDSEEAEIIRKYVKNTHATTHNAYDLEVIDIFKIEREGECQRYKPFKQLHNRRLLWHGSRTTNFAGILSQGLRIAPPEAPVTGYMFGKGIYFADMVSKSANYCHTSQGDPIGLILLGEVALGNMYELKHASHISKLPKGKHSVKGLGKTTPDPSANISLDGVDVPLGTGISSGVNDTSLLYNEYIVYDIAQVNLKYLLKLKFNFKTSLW
# Protocol: PARP1-DNA trapping, fluorescence polarization (FP)
# Format: biochemical
# Condition Info: PARP1, 0.25 hour

{"Smiles Str": "[2H]C([2H])([2H])NC(=O)c1ccc(N2CCN(Cc3cnc4c(N)c(CC)c(=O)[nH]c4c3)CC2)c(F)n1", "EC50": "3.11 nM"}

###

# Protocol: Pharmacokinetic study of single administration in mice
# Assay type: in vivo
# Condition Info: male, mouse, plasma; PO, 10 mg/kg, CD-1 mice
Metric Name: bioavailability

{"Compound": "CCc1c(N)c2ncc(CN3CCN(c4ccc(C(=O)NC)nc4)CC3)cc2[nH]c1=O [Example 1]", "Metric Name": "bioavailability", "Observed Result": "100%"}

###

# System: PARP5a (Homo sapiens, UniProt O95271)
# Sequence (O95271 1001-1327): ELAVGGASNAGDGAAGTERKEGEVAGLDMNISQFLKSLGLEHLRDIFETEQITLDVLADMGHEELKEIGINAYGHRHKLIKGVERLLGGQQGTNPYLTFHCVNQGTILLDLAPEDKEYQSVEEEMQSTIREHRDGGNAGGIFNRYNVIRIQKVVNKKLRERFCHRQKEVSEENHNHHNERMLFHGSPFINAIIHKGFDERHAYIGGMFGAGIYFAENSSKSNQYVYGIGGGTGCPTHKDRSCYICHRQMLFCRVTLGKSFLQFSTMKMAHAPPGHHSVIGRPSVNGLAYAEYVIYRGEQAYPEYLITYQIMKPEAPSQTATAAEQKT

{"Smiles Str": "[2H]C([2H])([2H])NC(=O)c1ccc(N2CCN(Cc3cnc4c(N)c(CC)c(=O)[nH]c4c3)CC2)c(F)n1", "System": "PARP5a (Homo sapiens, UniProt O95271)", "Measurement Unit": "µM", "IC50": 4.06}

###

# System: PARP3 (Homo sapiens)
# Sequence (Q9Y6F1 whole entry): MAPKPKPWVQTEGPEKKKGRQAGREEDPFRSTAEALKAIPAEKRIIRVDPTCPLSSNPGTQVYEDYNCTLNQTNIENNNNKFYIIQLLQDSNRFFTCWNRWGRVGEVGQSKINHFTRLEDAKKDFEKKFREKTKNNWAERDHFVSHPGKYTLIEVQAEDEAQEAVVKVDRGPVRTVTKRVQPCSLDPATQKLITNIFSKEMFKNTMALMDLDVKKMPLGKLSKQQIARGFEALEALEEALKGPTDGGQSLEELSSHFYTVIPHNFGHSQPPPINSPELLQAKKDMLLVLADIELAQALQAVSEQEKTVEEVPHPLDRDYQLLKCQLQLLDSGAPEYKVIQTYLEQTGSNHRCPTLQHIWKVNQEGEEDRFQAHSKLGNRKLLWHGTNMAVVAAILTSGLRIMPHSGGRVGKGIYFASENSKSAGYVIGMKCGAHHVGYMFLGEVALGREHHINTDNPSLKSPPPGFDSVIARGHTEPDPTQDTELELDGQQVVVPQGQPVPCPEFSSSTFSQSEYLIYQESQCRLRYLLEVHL
pIC50: −log10 of the molar value.
Metric Name: pIC50

{"Smiles Str": "[2H]C([2H])([2H])NC(=O)c1ccc(N2CCN(Cc3cnc4c(N)c(CC)c(=O)[nH]c4c3)CC2)c(F)n1", "Metric Name": "pIC50", "Observed Result": 5.12}

###

# System: PARP1 (Homo sapiens)
# Construct: purchased BPS 80501
# Protocol: DNA trapping capability of PARP1 (HTRF)
# Format: biochemical

{"Smiles Str": "CCc1c(N)c2ncc(CN3CCN(c4ccc(C(=O)NC)nc4)CC3)cc2[nH]c1=O", "EC50 (nM)": 1.78}
{"Smiles Str": "CCc1c(N)c2ncc(CN3CCN(c4ccc(C(=O)NOC)nc4F)CC3)cc2[nH]c1=O", "EC50 (nM)": 3.73}
{"Smiles Str": "[2H]C([2H])([2H])NC(=O)c1ccc(N2CCN(Cc3cnc4c(N)c(CC)c(=O)[nH]c4c3)CC2)c(F)n1", "EC50 (nM)": 3.8}
{"Smiles Str": "CCc1c(N)c2ncc(CN3CCN(c4ccc(C(=O)NC)nc4F)CC3)cc2[nH]c1=O", "EC50 (nM)": 3.87}

###

As an illustration, consider measured IC50 for compounds on PARP6 (Homo sapiens, UniProt Q2NL67).
Sequence (Q2NL67 whole entry): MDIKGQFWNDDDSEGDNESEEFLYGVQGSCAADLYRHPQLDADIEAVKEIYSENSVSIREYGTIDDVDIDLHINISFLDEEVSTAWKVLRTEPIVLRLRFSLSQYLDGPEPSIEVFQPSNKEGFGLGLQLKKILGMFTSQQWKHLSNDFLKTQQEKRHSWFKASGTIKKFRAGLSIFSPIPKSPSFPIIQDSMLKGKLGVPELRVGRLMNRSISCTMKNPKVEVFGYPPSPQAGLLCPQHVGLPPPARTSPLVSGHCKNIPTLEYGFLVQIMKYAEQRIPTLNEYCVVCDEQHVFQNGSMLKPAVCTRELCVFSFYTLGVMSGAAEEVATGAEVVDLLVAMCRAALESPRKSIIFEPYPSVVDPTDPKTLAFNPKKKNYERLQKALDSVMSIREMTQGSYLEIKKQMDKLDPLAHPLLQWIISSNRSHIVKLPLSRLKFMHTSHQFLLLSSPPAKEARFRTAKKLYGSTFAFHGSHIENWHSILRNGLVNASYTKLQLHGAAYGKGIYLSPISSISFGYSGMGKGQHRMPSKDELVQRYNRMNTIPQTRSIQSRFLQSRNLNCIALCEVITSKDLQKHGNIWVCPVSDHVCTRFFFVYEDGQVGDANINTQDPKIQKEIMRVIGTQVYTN

{"Compound": "[2H]C([2H])([2H])NC(=O)c1ccc(N2CCN(Cc3cnc4c(N)c(CC)c(=O)[nH]c4c3)CC2)c(F)n1 [Example 4]", "Operator Symbol": ">", "IC50 (µM)": 10}
{"Compound": "CCc1cc2ncc(CN3CCN(c4ccc(C(=O)NC)nc4)CC3)cc2[nH]c1=O [AZD5305, reference compound]", "Operator Symbol": "=", "IC50 (µM)": 8.66}

###

# System: PARP2 (Homo sapiens)
# Construct: purchased BPS 80502
# Sequence (Q9UGN5 whole entry): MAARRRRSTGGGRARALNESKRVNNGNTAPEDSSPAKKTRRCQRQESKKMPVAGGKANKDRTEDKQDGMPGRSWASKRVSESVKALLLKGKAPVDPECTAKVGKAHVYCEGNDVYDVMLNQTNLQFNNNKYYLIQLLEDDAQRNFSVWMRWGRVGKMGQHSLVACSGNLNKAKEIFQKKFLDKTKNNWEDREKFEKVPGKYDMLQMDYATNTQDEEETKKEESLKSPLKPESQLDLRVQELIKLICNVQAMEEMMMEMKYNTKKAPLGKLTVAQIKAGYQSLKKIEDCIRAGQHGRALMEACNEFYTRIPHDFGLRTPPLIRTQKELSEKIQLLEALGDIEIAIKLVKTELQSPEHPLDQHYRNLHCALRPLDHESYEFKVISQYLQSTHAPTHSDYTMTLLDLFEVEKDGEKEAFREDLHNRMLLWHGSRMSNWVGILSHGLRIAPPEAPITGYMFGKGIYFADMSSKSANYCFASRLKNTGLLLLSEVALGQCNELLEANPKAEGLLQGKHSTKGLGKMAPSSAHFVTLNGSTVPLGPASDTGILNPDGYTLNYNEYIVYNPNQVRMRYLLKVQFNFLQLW
# Protocol: PARP2-DNA trapping, fluorescence polarization (FP)
# Format: biochemical
# Condition Info: PARP2, 0.5 hour
pEC50: −log10 of the molar value.

{"Smiles Str": "[2H]C([2H])([2H])NC(=O)c1ccc(N2CCN(Cc3cnc4c(N)c(CC)c(=O)[nH]c4c3)CC2)c(F)n1", "pEC50": 5.26}
